test system: SK-OV-3 ovarian; assay: NCI tumour cell line growth inhibition, 48 h
Readout Label: TGI

>>> result_value("COC(=O)[C@@]12C(=O)CCC(=O)C1C1C(=CC2C)O[C@@H]2OC3(CCCCC3)O[C@H]12 (stereo not given in full)")
"> 100 µM"
>>> result_value("C/C(=C1\\SC(=NCc2cccs2)NC1=O)c1ccc2ncccc2c1")
"> 25 µM"
>>> result_value("CC(C)(Oc1ccc(Cl)cc1)C(=O)N(C(=O)N1CCN(c2ccccc2)CC1)c1ccccc1")
"> 100 µM"
>>> result_value("COC(=O)/C(=N/NC(N)=O)C(C(=O)C(=O)Nc1ccc(C)cc1)c1nc2ccc(C(=O)c3ccccc3)cc2[nH]c1=O (stereo not given)")
"> 100 µM"

With those in mind, consider the next compound.
Reported TGI of `CN(C)CCn1cnc2sc3ccccc3c21` : > 100 µM

----------
test system: TK-10 renal; experiment: NCI tumour cell line growth inhibition, 48 h
TGI by entry:

>>> result_value("C=CCN1C(N)=C(C#N)C(C#N)(C#N)C1CCC (stereo unspecified)")
"> 100 µM"

Reported TGI of CC(OC(C)(C)C)[C@H](NC(=O)OCc1ccccc1)C(=O)NC(OCc1ccccc1)[C@H]1COC(C)(C)O1 (stereo partly specified) : > 10 µM

Reported TGI of Cc1cc(S(=O)(=O)NC2=NCC(C)NN2)c(S)cc1Cl (stereo unspecified) : > 100 µM

Reported TGI of `CCN(CC)CCOCCn1c2c(c3ccccc31)CCCC2` : 38.5 µM

Reported TGI of `C/C(=C1\SC(=NCc2cccs2)NC1=O)c1ccc2ncccc2c1` : > 25 µM

Reported TGI of `CCOC(=O)Cn1c(=O)[nH]c(=O)c2c1ncn2Cc1ccccc1` : > 100 µM

Reported TGI of `c1cc2ccc3cc4ncccc4c4ccc(c1)c2c34` : > 100 µM

Reported TGI of Cc1cc(C)c2c(c1)CC1(Cc3c(ccc(C)c3C)C1=O)C2=O (stereo unspecified) : > 100 µM

----------
tested on: T-47D breast; assay: NCI tumour cell line growth inhibition, 48 h
Readout Label: TGI

Solved cases below.
>>> result_value("CN(C)c1nc(N)nc(CCl)n1")
"> 100 µM"
>>> result_value("COC(=O)c1cc(C)n(CN(Cn2nc(C(=O)OC)cc2C)c2ccccc2)n1")
"88.3 µM"
>>> result_value("CC(C)(Oc1ccc(Cl)cc1)C(=O)N(C(=O)N1CCN(c2ccccc2)CC1)c1ccccc1")
"> 100 µM"
>>> result_value("O=C(CSc1nnc(-c2ccccn2)s1)N/N=C/c1ccc([N+](=O)[O-])cc1")
"> 100 µM"
>>> result_value("Cc1cc2nc(N3C(=O)/C(=C/c4ccc(Oc5ccccc5)cc4)N=C3c3ccccc3)sc2cc1C")
"> 100 µM"

Reported TGI of `O=[As]O` : > 100 µM

Reported TGI of `Cn1c(=O)c2ccccc2c2ccccc21` : > 100 µM

Reported TGI of `C/C(=C1\SC(=NCc2cccs2)NC1=O)c1ccc2ncccc2c1` : > 25 µM

Reported TGI of `Cc1ccc(NC(=O)/C=C/c2ccccc2)c(C)c1` : > 100 µM

----------
tested on: TK-10 renal; assay: NCI tumour cell line growth inhibition, 48 h
GI50 by entry:

>>> result_value("Clc1nc(Cl)c2ncn(C/C=C\\COc3cccc(OC/C=C\\Cn4cnc5c(Cl)nc(Cl)nc54)c3)c2n1")
"> 100 µM"
>>> result_value("COc1cccc2c1C(=O)c1c(O)c3c(c(O)c1C2=O)C[C@@](O)(C(C)=O)C[C@@H]3O[C@H]1C[C@H](N)[C@H](O)[C@H](C)O1")
"0.0936 µM"

The observed GI50 for `O=C1/C(=C\c2ccc(Cl)cc2)CCOc2c1ccc1ccccc21` when tested with TK-10 renal stands at 27.6 µM

The observed GI50 for COc1ccc(C2C(C#N)=C(N)Oc3c2sc2c(F)cccc32)cc1 (stereo unspecified) when tested with TK-10 renal stands at 5.69 µM

The observed GI50 for `COc1cc(-c2cc(/C=C3\C(=O)Nc4cc(Cl)ccc43)[nH]n2)cc(OC)c1OC` when tested with TK-10 renal stands at 5.95 µM

The observed GI50 for `O=C(NCCCN1CCC(N2CCCCC2)CC1)C1=Cc2cc(Br)ccc2OC1` when tested with TK-10 renal stands at 14.3 µM

----------
test system: MDA-MB-231 breast; assay: NCI tumour cell line growth inhibition, 48 h
Readout Label: TGI

>>> result_value("COc1cccc2c1C(=O)c1c(O)c3c(c(O)c1C2=O)C[C@@](O)(C(C)=O)C[C@@H]3O[C@H]1C[C@H](N)[C@H](O)[C@H](C)O1")
"2.75 µM"

Reported TGI of `O=C(NC/C(Cl)=C/Cl)Nc1c2ccccc2nc2ccccc12` : 80.1 µM

Reported TGI of `O=C(O)CCN1CCN(CCC(=O)O)CCN(CCC(=O)O)CC1` : > 100 µM

Reported TGI of `CSC(SC)=C(C#N)C(=O)Nc1ccc(C)cc1` : > 100 µM

Reported TGI of `N#Cc1c2c(c(Nc3ccc(F)cc3)n3c1nc1ccccc13)CCCC2` : > 100 µM

Reported TGI of `O=C1NC(=NCc2ccccc2Br)S/C1=C\c1ccc2ncccc2c1` : > 25 µM

Reported TGI of CC(C)/C=N\N1C(N)=C(C#N)C(C#N)(C#N)C1C(C)C (centres undefined) : > 100 µM

Reported TGI of `C=C1c2nc3ccccc3n2C=C(c2ccc(OC)cc2)N1c1ccccc1` : > 100 µM

Reported TGI of `C=CCN1CN(C2CCCCC2)CSC1=S` : 43.6 µM

Reported TGI of `COc1ccc2[nH]c3c(C)c4ccnc(NCCCN(C)CCCNc5ccc([N+](=O)[O-])c6[nH]c7ccccc7c(=O)c56)c4c(C)c3c2c1` : 1.81 µM

Reported TGI of `O=c1oc2ccc(Br)cc2c(=O)n1-c1ccc(Br)cc1F` : 4.81 µM

Reported TGI of `COc1ccccc1-c1cc(=O)c2c(C)ccnc2[nH]1` : > 100 µM

Reported TGI of `O=C(OCc1nc2nc(Cl)nc(N3CCOCC3)c2[nH]1)n1ccnc1` : 3.38 µM

Reported TGI of CC(C)C1(Cl)CCC2C3(C)CCCC(C)(C(=O)O)C3CC(Cl)C2(Cl)C1Cl (centres undefined) : > 100 µM

Reported TGI of `CCSc1cc(C(=O)OC)c2n(c1=O)CCCC2` : > 100 µM

Reported TGI of `CCCCCCN1C(=O)CC(=O)N(CCCCCC)S1(=O)=O` : 33.2 µM

Reported TGI of `Clc1nc(Cl)c2ncn(C/C=C\COc3cccc(OC/C=C\Cn4cnc5c(Cl)nc(Cl)nc54)c3)c2n1` : > 100 µM

Reported TGI of COc1cccc2c(=O)c3c(n(C)c12)OC(C(C)C)C3 (centres undefined) : > 100 µM

Reported TGI of `CCN1C(C)(C)CC(Oc2ccc(C(=O)Nc3ccc(NC(=O)Nc4cc(C(C)(C)C)on4)cc3)nc2)CC1(C)C` : 4.82 µM

Reported TGI of `Cn1ccnc1Sc1ccc(/C=N\NC(=O)c2cccc(F)c2)cc1[N+](=O)[O-]` : > 100 µM

Reported TGI of CC(=O)N1C(Nc2ccccc2)CCN1c1ccccc1 (centres undefined) : > 10 µM

Reported TGI of `O=[N+]([O-])/C(C(Cl)=C(Cl)Cl)=C1\NCCS1` : > 100 µM

Reported TGI of Cc1cc(S(=O)(=O)NC2=NCC(C)NN2)c(S)cc1Cl (centres undefined) : > 100 µM

Reported TGI of CC(C)(C)OC(=O)N1CC(O)O[C@H](c2ccccc2)[C@@H]1c1ccccc1 (some centres undefined) : 67.6 µM

Reported TGI of COc1ccc(C2C(C#N)=C(N)Oc3c2sc2c(F)cccc32)cc1 (centres undefined) : 20.3 µM

Reported TGI of COc1ccc(C2(O)C(S(=O)(=O)c3ccc(C)cc3)=Cc3ccc(OC)cc32)cc1 (centres undefined) : > 100 µM

Reported TGI of `S=c1nc2sc3c(c2c(Nc2ccccc2)[nH]1)CCCC3` : > 100 µM

Reported TGI of `Cc1ccc(S(=O)(=O)Nn2c(S)c(C#N)c(-c3ccc(N(C)C)cc3)c(C#N)c2=O)cc1` : > 100 µM

Reported TGI of `COc1ccc2oc(=N)c(C(N)=O)cc2c1` : > 100 µM

----------
test system: SF-539 CNS; test: NCI tumour cell line growth inhibition, 48 h
Readout Label: TGI (µM)
Output spec: scalar in µM, unitless text.

Solved cases below.
>>> result_value("[C-]#[O+].[C-]#[O+].[C-]#[O+].[C-]#[O+].[O-]C(c1ccccc1[PH+]1OC(C(F)(F)F)(C(F)(F)F)c2ccccc21)(C(F)(F)F)C(F)(F)F.[Re] (stereo unspecified)")
8.68
>>> result_value("COc1cc2c(/C=C3\\C(=O)N(C)c4ccc(O)cc43)c[nH]c2cc1C")
3.74
>>> result_value("Cc1ncc(C(=O)Nc2ccc(CN3CCN(C)CC3)c(C(F)(F)F)c2)cc1C#Cc1c(N)ncc2ccc(F)cc12")
1.3
>>> result_value("Cc1cc(Nc2nc(-c3ccc(F)cc3)nc3ccccc23)n[nH]1")
15.4
>>> result_value("O=C1C=CC=C[C@@H]2C(C3OCCO3)CC[C@H]12.[C-]#[O+].[C-]#[O+].[C-]#[O+].[Fe] (stereo partly specified)")
77.2

Reported TGI of `COc1ccc2[nH]c3c(C)c4ccnc(NCCCN(C)CCCNc5ccc([N+](=O)[O-])c6[nH]c7ccccc7c(=O)c56)c4c(C)c3c2c1` : 0.726

Reported TGI of `O=C(OCc1nc2nc(Cl)nc(N3CCOCC3)c2[nH]1)n1ccnc1` : 2.82

Reported TGI of `Oc1c(I)cc(I)cc1CNCCN(Cc1ccccn1)Cc1ccccn1` : 2.42

Reported TGI of `O=C(NCCCN1CCC(N2CCCCC2)CC1)C1=Cc2cc(Br)ccc2OC1` : 5.04

Reported TGI of `O=C(NCc1ccccc1)c1cc2ccc(O)c(O)c2cn1` : 32.6

Reported TGI of `CC(=O)OCc1cnc2c3c(nc4ccccc4c13)C(=O)c1cccnc1-2` : 0.082

Reported TGI of `COc1cc(-c2cc(/C=C3\C(=O)Nc4cc(Cl)ccc43)[nH]n2)cc(OC)c1OC` : 21.8

Reported TGI of `CCN(CC)c1ccc(/C=N/NC(=O)c2ccc(S(C)(=O)=O)cc2)c(O)c1` : 12
